- target.desc: 5-hydroxytryptamine receptor 3A (Mus musculus)
- Sequence (P23979 whole entry): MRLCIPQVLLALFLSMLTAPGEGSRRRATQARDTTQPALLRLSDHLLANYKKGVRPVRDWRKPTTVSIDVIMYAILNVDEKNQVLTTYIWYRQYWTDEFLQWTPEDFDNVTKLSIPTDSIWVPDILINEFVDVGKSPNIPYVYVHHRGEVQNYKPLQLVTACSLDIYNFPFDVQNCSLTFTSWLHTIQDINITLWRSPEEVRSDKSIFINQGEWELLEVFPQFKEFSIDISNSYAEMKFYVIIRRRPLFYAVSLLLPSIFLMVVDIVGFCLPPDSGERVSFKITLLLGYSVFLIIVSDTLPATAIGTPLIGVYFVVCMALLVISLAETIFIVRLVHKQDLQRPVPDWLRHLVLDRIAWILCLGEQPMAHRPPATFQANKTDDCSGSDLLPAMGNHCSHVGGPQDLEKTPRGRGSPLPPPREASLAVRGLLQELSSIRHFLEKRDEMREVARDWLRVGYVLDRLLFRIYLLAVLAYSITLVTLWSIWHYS
Assign Ki to each entry below.

Sure, the documented Ki for `Clc1ccc2oc(N3CCN4CCC3CC4)nc2c1` is 1.2 nM

Form field Ki, entry `Cc1ccc2oc(N3CCN4CCC3CC4)nc2c1` : 3.4 nM

The compound listed as `Brc1ccc2oc(N3CCN4CCC3CC4)nc2c1` shows Ki equal to < 17 nM

Entry `c1ccc(-c2cnc3oc(N4CCN5CCC4CC5)nc3c2)cc1` — recorded Ki = 3670 nM

GET /value?item= `c1cc2oc(N3CCN4CCC3CC4)nc2nc1N1CCCCC1` &field=Ki returns 1140 nM

Sure, the documented Ki for `Cc1ccc2nc(N3CCN4CCC3CC4)oc2n1` is 126 nM

Measured Ki, `CCc1ccc2oc(N3CCN4CCC3CC4)nc2n1` : > 5260 nM

// sample `CC(C)c1ccc2oc(N3CCN4CCC3CC4)nc2n1` , its Ki was > 5290 nM

// field: Ki; key: `Cc1nc2nc(N3CCN4CCC3CC4)oc2cc1F` ; value = 547 nM

Documented Ki of `Cc1ccc2oc(N3CCN4CCC3CC4)nc2n1` : 269 nM

`Fc1ccccc1-c1ccc2oc(N3CCN4CCC3CC4)nc2n1` has a reported Ki of > 3770 nM

* * *

- System: CHO
- assay.notes: Toxicity in CHO cells assessed as induction of DNA fragments by in vitro micronucleus assay
- Format: cell-based, Cricetulus griseus
- details: chinese hamster
quantity.name: Activity

Worked examples follow.
smiles_record=Cc1ccc2oc(N3CCN4CCC3CC4)nc2n1 observed_result=Non-toxic
smiles_record=CCc1ccc2oc(N3CCN4CCC3CC4)nc2n1 observed_result=Non-toxic
smiles_record=Cc1nc2nc(N3CCN4CCC3CC4)oc2cc1Cl observed_result=Non-toxic
smiles_record=Fc1ccccc1-c1ccc2oc(N3CCN4CCC3CC4)nc2n1 observed_result=Non-toxic
smiles_record=Brc1cnc2nc(N3CCN4CCC3CC4)oc2c1 observed_result=Toxic

Now take the following molecule into account.
Entry `Fc1cnc2nc(N3CCN4CCC3CC4)oc2c1` — recorded Activity = Toxic

* * *

- target.desc: Neuronal acetylcholine receptor; alpha4/beta2 (Rattus norvegicus, UniProt P09483+P12390)
- Sequence (P09483 whole entry): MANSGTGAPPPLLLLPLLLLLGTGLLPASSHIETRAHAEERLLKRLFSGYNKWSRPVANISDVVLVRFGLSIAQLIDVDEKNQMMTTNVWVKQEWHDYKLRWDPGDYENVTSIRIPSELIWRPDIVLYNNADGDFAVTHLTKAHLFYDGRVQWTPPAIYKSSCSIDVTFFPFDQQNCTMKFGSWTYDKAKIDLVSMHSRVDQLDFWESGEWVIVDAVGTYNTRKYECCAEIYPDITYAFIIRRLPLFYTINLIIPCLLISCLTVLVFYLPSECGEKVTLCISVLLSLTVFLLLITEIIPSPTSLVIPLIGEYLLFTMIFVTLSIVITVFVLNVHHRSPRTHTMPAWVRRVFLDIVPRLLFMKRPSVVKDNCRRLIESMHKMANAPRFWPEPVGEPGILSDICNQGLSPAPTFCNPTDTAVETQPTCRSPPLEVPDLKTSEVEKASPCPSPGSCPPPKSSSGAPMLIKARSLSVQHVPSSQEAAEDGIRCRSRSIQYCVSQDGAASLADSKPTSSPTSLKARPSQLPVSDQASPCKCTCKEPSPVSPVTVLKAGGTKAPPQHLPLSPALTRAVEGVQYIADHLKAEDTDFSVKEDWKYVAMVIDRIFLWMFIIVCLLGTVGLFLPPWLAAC
- Sequence (P12390 whole entry): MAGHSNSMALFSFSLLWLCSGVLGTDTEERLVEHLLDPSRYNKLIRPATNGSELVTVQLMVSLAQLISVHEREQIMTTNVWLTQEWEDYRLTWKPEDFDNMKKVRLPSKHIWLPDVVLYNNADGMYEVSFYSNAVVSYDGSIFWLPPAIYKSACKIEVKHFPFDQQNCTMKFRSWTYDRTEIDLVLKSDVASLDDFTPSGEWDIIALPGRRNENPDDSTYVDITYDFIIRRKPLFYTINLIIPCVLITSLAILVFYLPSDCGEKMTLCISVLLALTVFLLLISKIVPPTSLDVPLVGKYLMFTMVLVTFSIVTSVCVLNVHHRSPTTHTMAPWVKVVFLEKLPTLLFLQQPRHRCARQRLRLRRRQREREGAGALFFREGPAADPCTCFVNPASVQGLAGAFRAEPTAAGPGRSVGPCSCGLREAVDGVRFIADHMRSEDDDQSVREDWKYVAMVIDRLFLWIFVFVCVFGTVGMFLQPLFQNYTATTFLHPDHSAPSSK
- assay.notes: Displacement of [3H]nicotine from alpha4beta2 nAChR in rat brain homogenate
quantity.name: pKi
# pKi = -log10(concentration in molar units)

Entry `Cc1ccc2oc(N3CCN4CCC3CC4)nc2n1` ; pKi = 5.87

* * *

- target.desc: 5-hydroxytryptamine receptor 3A (Mus musculus, UniProt P23979)
- Sequence (P23979 whole entry): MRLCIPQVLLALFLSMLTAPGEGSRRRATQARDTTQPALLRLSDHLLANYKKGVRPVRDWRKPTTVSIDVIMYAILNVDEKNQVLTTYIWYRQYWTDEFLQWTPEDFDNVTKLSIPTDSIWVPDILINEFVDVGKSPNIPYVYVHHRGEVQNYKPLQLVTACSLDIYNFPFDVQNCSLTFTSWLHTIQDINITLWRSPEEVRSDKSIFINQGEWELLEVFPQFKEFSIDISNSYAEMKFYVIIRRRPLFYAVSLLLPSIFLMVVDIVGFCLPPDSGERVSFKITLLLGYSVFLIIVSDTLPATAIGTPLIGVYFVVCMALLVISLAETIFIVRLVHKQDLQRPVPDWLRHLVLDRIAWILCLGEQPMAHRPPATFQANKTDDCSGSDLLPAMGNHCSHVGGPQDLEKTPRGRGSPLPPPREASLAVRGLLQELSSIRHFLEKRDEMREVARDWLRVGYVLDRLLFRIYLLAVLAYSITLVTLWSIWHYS
quantity.name: Ki

Considering `Cc1ccc2nc(N3CCN4CCC3CC4)oc2c1` , its Ki with 5-hydroxytryptamine receptor 3A (Mus musculus, UniProt P23979) was recorded as < 0.017 µM

Form: item `c1cncc(-c2cnc3nc(N4CCN5CCC4CC5)oc3c2)c1` ; test system 5-hydroxytryptamine receptor 3A (Mus musculus, UniProt P23979); Ki: > 5.35 µM

Here `CCc1cnc2nc(N3CCN4CCC3CC4)oc2c1` was tested on 5-hydroxytryptamine receptor 3A (Mus musculus, UniProt P23979), and its Ki came to > 5.26 µM
